Reference for the values: the supplement of paper PMC10567573

Listed here: items and their measured protein stability index.
B1: ZNF263 (parent)
chain: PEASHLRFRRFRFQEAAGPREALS

- Variants of: B1
- assay-details: protein stability index of a GFP-peptide fusion (GPS, HEK-293T) (PSI 1-6); higher = more stable;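 further: lentivirally expressed fusions sorted by FACS into six bins by GFP to DsRed ratio, PSI derived from sequencing read proportions per bin multiplied by bin number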
- setup-conditions: c terminus: a fixed tail appended
measurement-kind: protein stability index

>>> df
    mutation_list  result
 0            E2F    1.73
 1            L6T    1.98
 2           A22H    2.57
 3           G18W    1.88
 4           A17G    2.58
 5            R9Q    3.44
 6           G18E    3.44
 7           E21R    2.87
 8           E21P    2.89
 9           F13T    4.15
10            P1M    2.73
11            L6N    3.03
12            R9Y    1.96
13           F13D    4.81
14            E2D    3.22
15            H5L    2.74
16           G18R    2.65
17            R7Q    2.75
18           R20T    2.65
19           P19I    2.04
20           F11W    2.67
21           R20L    2.29
22           A17W    2.69
23           E21K    2.45
24            P1D    2.65
25            L6S    3.23
26            F8I    3.43
27           L23W    1.91
28           Q14A    1.81
29            R7P    2.35
30            S4P    3.78
31           A22T    2.74
32           R10P    2.11
33            H5S    2.29
34            A3F     2.8
35           F13G    4.17
36            L6C     2.6
37           R10S    2.72
38           A22V    2.15
39           F11P    4.66
40           R20A    3.17
41            S4R    2.19
42           A22R     2.8
43           F11I     3.1
44           P19A    2.71
45           A17C    2.14
